Experiment: Isocratic HPLC Log P
Property Measured: chromatographic logP
Just the number.

The examples below pair each entry with its known result.
# Molecule, Recorded Value
records = [
    ("OCc1ccccc1", 0.96),
    ("O=c1cc[nH]c(=O)[nH]1", -1.05),
]

# get_value(readout='chromatographic logP', item= CC(=O)c1ccccc1 ) 2.54

Using the record for NC(=O)c1ccccc1 [standard 2, benzamide] , report its chromatographic logP. 0.41

Fill in the blank: the reported chromatographic logP of c1ccc(Sc2ccccc2)cc1 [standard 13, phenyl sulfide] is ____. 4.31

Given the molecule CNC(=O)c1ccccc1 [standard 3, N-methyl benzamide] , what is its reported chromatographic logP? 0.96

====

Test: physchem
Conditions: Log P calc. by slope
Decide using chromatographic logP: a value greater than or equal to 4 is true (1), a smaller one is false (0).

Observe how each entry below is paired with its result.
# Smiles Structure, Answer Label
measured = [
    ("COc1ccc(C(c2ccc(OC)cc2)C(Cl)(Cl)Cl)cc1", "true (1)"),
    ("Cc1ccc(Cl)cc1", "false (0)"),
    ("Brc1ccccc1", "false (0)"),
    ("CCCN(CCC)c1c([N+](=O)[O-])cc(C(F)(F)F)cc1[N+](=O)[O-]", "true (1)"),
]

Kindly consider the entry below.
Does c1ccc2cc3ccccc3cc2c1 have a reported chromatographic logP of at least 4? true (1)

====

Entries and their measured chromatographic logP follow.
Experiment: physchem
Settings: New Method Calc. Log P Y = 1.009X + 0.029
No unit in the answer, only the number.

Example entries begin here.
# Compound, chromatographic logP
records = [
    ("Cc1ccc(Cl)cc1 [standard 8, p-chloro toluene]", 3.74),
    ("COc1ccc(C(c2ccc(OC)cc2)C(Cl)(Cl)Cl)cc1 [standard 15, methoxychlor]", 4.61),
    ("CCCN(CCC)c1c([N+](=O)[O-])cc(C(F)(F)F)cc1[N+](=O)[O-] [standard 14, trifluralin]", 4.88),
    ("Brc1ccccc1 [standard 7, bromobenzene]", 3.44),
]

Next, consider the following compound.
Param item = c1ccc(-c2ccccc2)cc1 [standard 10, biphenyl] ; retrieve measured chromatographic logP. 4.07

====

Here, each record is paired with measured chromatographic logP data.
Assay: Gradient HPLC Log P determination from retention time (new method)
Conditions: Log P calc. by slope, calculated from Log K (capacity factor) with exponential equation Y=0.6972e^1.5966X
In your answer, state the number alone without any accompanying words.

Sample records with chromatographic logP:
# Compound, chromatographic logP
measured = [
    ("CC(=O)c1ccccc1", 2.22),
    ("CNC(=O)c1ccccc1 [standard 3, N-methyl benzamide]", 0.75),
    ("NC(=O)c1ccccc1 [standard 2, benzamide]", 0.58),
]

Turning now to a further compound:
Report chromatographic logP for c1ccc(Sc2ccccc2)cc1 [standard 13, phenyl sulfide] please. 4.17

====

Assay: physchem
# Lookup of reported chromatographic logP keyed by entry

Example entries and their recorded answers appear below.
# Smiles Structure, chromatographic logP
measured = [
    ("c1ccc(-c2ccccc2)cc1", 3.8),
    ("Brc1ccccc1", 3.23),
    ("Cc1ccc(Cl)cc1", 3.57),
    ("c1ccc2cc3ccccc3cc2c1", 4.46),
    ("CCCN(CCC)c1c([N+](=O)[O-])cc(C(F)(F)F)cc1[N+](=O)[O-]", 5),
]

Moving on to another compound below.
Item COc1ccc(C(c2ccc(OC)cc2)C(Cl)(Cl)Cl)cc1 has what recorded chromatographic logP? 4.26

Where do the numbers come from? From patent US6524863B1.
